- SYSTEM_UNDER_TEST: Mature human IL-6 (human, UniProt P05231 30-212)
- Sequence (P05231 30-212): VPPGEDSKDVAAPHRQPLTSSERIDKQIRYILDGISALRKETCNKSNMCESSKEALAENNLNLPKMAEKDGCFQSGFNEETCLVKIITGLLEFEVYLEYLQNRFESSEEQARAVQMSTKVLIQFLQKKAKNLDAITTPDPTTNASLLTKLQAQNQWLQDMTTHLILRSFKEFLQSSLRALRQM
- MEASUREMENT_NOTES: cell-based or functional assay
PROPERTY_MEASURED: IC50, IL-6 induced TF-1 cell proliferation assay (pM)
# output: bare number, implied unit pM

Task: State the recorded IC50, IL-6 induced TF-1 cell proliferation assay for this entry: Antibody 10 (GL) IgG (antibody, V domains shown) VH: EVQLVESGGGLVQPGGSLRLSCAASGFTISSNYMIWVRQAPGKGLEWVSDLYYYAGDTYYADSVKGRFTMSRDISKNTVYLQMNSLRAEDTAVYYCARWEEEGRGYIDVWGRGTLVTVSS VL: DIQMTQSPSTLSASVGDRVTITCRASQGISSWLAWYQQKPGKAPKVLIYKASTLESGVPSRFSGSGSGTEFTLTISSLQPDDFATYYCQQSWLGGSFGQGTKLEIKR
Result: 71

Task: Name the reported IC50, IL-6 induced TF-1 cell proliferation assay value associated with the binder Antibody 17 (GL) IgG (antibody, V domains shown) VH: EVQLVESGGGLVQPGGSLRLSCAASGFTISSNYMIWVRQAPGKGLEWVSDLYYYAGDTYYADSVKGRFTMSRDISKNTVYLQMNSLRAEDTAVYYCARWADDHPPYIDMWGRGTLVTVSS VL: DIQMTQSPSTLSASVGDRVTITCRASQGISSWLAWYQQKPGKAPKVLIYKASTLESGVPSRFSGSGSGTEFTLTISSLQPDDFATYYCQQSWLGGSFGQGTKLEIKR
Result: 1

Task: IC50, IL-6 induced TF-1 cell proliferation assay lookup needed for Antibody 18 (GL) IgG (antibody, V domains shown, Germlined IgG1/kappa; also called Ab 18) VH: EVQLVESGGGLVQPGGSLRLSCAASGFTISSNYMIWVRQAPGKGLEWVSDLYYYAGDTYYADSVKGRFTMSRDISKNTVYLQMNSLRAEDTAVYYCARWADDHPPWIDLWGRGTLVTVSS VL: DIQMTQSPSTLSASVGDRVTITCRASQGISSWLAWYQQKPGKAPKVLIYKASTLESGVPSRFSGSGSGTEFTLTISSLQPDDFATYYCQQSWLGGSFGQGTKLEIKR , thanks.
Result: 3

Task: Which IC50, IL-6 induced TF-1 cell proliferation assay value belongs to Antibody 7 (GL) IgG (antibody, V domains shown, Germlined IgG1 with human kappa constant domain; also called Ab 7) VH: EVQLVESGGGLVQPGGSLRLSCAASGFTISSNYMIWVRQAPGKGLEWVSDLYYYAGDTYYADSVKGRFTMSRDISKNTVYLQMNSLRAEDTAVYYCARWADDHPAWVDLWGRGTLVTVSS VL: DIQMTQSPSTLSASVGDRVTITCRASQGISSWLAWYQQKPGKAPKVLIYKASTLESGVPSRFSGSGSGTEFTLTISSLQPDDFATYYCQQSWLGGSFGQGTKLEIKR ?
Result: 5
